Data origin: ChEMBL document CHEMBL1134805

- assay.target: Alpha-1A adrenergic receptor (Homo sapiens, UniProt P35348)
- Sequence (P35348 whole entry): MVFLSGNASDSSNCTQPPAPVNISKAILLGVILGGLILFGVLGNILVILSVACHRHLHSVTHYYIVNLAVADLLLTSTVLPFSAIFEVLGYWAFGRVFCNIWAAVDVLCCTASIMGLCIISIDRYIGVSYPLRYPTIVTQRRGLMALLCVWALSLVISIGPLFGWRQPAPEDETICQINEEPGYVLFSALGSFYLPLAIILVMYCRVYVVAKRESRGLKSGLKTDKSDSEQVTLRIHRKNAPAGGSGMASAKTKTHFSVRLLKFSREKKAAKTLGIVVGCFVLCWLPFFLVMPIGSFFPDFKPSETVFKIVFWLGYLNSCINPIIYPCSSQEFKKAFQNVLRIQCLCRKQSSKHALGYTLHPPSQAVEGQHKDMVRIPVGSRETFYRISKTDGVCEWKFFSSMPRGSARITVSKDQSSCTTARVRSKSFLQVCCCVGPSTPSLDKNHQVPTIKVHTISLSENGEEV
measure: Ki (nM)

[[record]]
molecule = "Cc1ccc(C2(c3ccc(C)cc3)CC(=O)N(CC(O)CN3CCC(C#N)(c4ccccc4C)CC3)C2=O)cc1 (stereo not given)"
quantitative_result = 9.7

[[record]]
molecule = "Cc1ccc(C(O)(C(=O)NCCCN2CCC(C#N)(c3ccccc3C)CC2)c2ccc(C)cc2)cc1"
quantitative_result = 2

[[record]]
molecule = "COC(=O)C1(c2ccccc2)CCN(CCCNC(=O)C(c2ccc(C)cc2)c2ccc(C)cc2)CC1"
quantitative_result = 17

[[record]]
molecule = "Cc1ccc(C2(c3ccc(C)cc3)CC(=O)N(CCCN3CCC(C#N)(c4ccccc4C)CC3)C2=O)cc1"
quantitative_result = 1.7

[[record]]
molecule = "Cc1ccc(C(O)(C(=O)NCCCN2CCC(C#N)(c3ccccc3)CC2)c2ccc(C)cc2)cc1"
quantitative_result = 5.7


---

- assay.target: Alpha-1B adrenergic receptor (Homo sapiens, UniProt P35368)
- Sequence (P35368 whole entry): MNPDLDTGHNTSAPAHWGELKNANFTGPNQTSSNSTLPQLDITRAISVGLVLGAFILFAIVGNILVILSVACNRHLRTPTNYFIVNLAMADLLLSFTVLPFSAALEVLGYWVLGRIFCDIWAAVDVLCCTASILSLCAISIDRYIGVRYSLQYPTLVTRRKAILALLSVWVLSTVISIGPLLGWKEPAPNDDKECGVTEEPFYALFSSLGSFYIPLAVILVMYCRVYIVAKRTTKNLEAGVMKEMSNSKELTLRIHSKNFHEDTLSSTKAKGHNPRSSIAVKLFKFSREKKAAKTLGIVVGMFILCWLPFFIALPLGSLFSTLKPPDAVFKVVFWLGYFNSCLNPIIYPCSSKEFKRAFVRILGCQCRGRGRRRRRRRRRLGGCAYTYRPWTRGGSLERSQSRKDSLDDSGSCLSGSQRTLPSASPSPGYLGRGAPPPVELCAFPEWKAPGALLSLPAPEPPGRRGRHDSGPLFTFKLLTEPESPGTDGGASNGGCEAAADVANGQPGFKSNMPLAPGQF
The entries below are paired with their reported log10 Ki.
measure: log10 Ki (log10 of the value in nM)

[[record]]
molecule = "Cc1ccc(C(O)(C(=O)NCCCN2CCC(C#N)(c3ccccc3)CC2)c2ccc(C)cc2)cc1"
quantitative_result = 3.26

[[record]]
molecule = "Cc1ccc(C2(c3ccc(C)cc3)CC(=O)N(CCCN3CCC(C#N)(c4ccccc4Cl)CC3)C2=O)cc1"
quantitative_result = 1.99

[[record]]
molecule = "COC(=O)C1(c2ccccc2)CCN(CCCNC(=O)C(c2ccc(C)cc2)c2ccc(C)cc2)CC1"
quantitative_result = 2.23

[[record]]
molecule = "Cc1ccc(C(O)(C(=O)NCCCN2CCC(C#N)(c3ccccc3C)CC2)c2ccc(C)cc2)cc1"
quantitative_result = 2.76

[[record]]
molecule = "Cc1ccc(C2(c3ccc(C)cc3)CC(=O)N(CC(O)CN3CCC(C#N)(c4ccccc4C)CC3)C2=O)cc1 (configuration not stated)"
quantitative_result = 3.18

